- Measurement notes: RP, Waters CORTECS T3, 100 × 2.1 mm, 2.7 µm, 0.15 mL/min, estimated dead time 1.5 min; A: water + 0.1% formic acid, pH 3; B: methanol + 0.1% formic acid, pH 3; gradient (min/%B) 0/0 1/0 6/5 30/100 35/100 35.1/0 40/0
- Condition: stereoisomer not certain
Quantity kind: LC retention time (min)
Quick note: give the figure in min, leave out the unit.

Consider the compound shown here: CCCCC(CC)COC(=O)c1ccccc1C(=O)OCC(CC)CCCC (stereo unspecified) [BIS(2-ETHYLHEXYL)PHTHALATE] What is its recorded LC retention time?
32.3

Which LC retention time is reported for this compound? CCCCCCCCCC(=O)OCC(COP(=O)([O-])OCC[N+](C)(C)C)OC(=O)CCCCCCCCC (stereo unspecified) [1,2-DIDECANOYL-SN-GLYCERO-3-PHOSPHOCHOLINE]
30.9

So what's the measured LC retention time for this one? CCC=CCC1C(=O)CCC1CC(=O)OC (stereo unspecified) [METHYL JASMONATE]
24

Look at this compound and give its reported LC retention time. CC(C)=CCNc1ncnc2nc[nH]c12 [N6-(DELTA2-ISOPENTENYL)-ADENINE]
16.5

What value of LC retention time has been reported for the following compound? O=C(O)c1ccc(=O)[nH]c1 [6-HYDROXYNICOTINATE]
6.98

For the compound NC(=O)[C@@H](N)Cc1c[nH]c2ccccc12 [L-TRYPTOPHANAMIDE] , what LC retention time is on record?
10.8

Give its LC retention time value. Item: CSc1ncnc2nc[nH]c12 [THIOPURINE S-METHYLETHER]
14.4
